Listed here: compounds with reported IC50 for Full length Human HDAC8 (Homo sapiens).

// below: answered compounds
COMPOUND	REPORTED ENDPOINT	RESULT
O=C(NO)c1ccc(CN2C3CCCC2CC3)c(F)c1 [compound 61]	IC50	1000 to 10000 nM
O=C(NO)c1ccc2c(c1F)CCN(CC13CC4CC(CC(C4)C1)C3)C2 [compound 21]	IC50	1000 to 10000 nM
O=C(NO)c1ccc(CN2C3CCCC2CCC3)c(F)c1 [compound 60]	IC50	1000 to 10000 nM
O=C(NO)c1cc(F)c2c(c1)CCN([C@@H]1CCC13CCCCC3)C2 (single isomer, unassigned) [compound 8]	IC50	10000 to 100000 nM
C[C@@H]1CC[C@H]2c3c(F)cc(C(=O)NO)cc3CCN12 (single isomer, unassigned) [compound 158]	IC50	1000 to 10000 nM
CN1Cc2cc(C(=O)NO)ccc2-c2cccn21 [compound 162]	IC50	1000 to 10000 nM

So what IC50 did O=C(NO)c1cc(F)c2c(c1)CCN(C1COC1)C2 [compound 24] get with Full length Human HDAC8 (Homo sapiens)?
1000 to 10000 nM

So what IC50 did O=C(NO)c1ccc(CN2CC3(CCCC3)C2)c(F)c1 [compound 69] get with Full length Human HDAC8 (Homo sapiens)?
1000 to 10000 nM

So what IC50 did O=C(NO)c1ccc2c(c1)CCN(CC13CC4CC(CC(C4)C1)C3)C2 [compound 26] get with Full length Human HDAC8 (Homo sapiens)?
1000 to 10000 nM

---

- TEST SYSTEM: Human HDAC9 a.a. 604-1066 (Homo sapiens)
- Sequence (Q9UKV0 604-1066 isoform Q9UKV0-5): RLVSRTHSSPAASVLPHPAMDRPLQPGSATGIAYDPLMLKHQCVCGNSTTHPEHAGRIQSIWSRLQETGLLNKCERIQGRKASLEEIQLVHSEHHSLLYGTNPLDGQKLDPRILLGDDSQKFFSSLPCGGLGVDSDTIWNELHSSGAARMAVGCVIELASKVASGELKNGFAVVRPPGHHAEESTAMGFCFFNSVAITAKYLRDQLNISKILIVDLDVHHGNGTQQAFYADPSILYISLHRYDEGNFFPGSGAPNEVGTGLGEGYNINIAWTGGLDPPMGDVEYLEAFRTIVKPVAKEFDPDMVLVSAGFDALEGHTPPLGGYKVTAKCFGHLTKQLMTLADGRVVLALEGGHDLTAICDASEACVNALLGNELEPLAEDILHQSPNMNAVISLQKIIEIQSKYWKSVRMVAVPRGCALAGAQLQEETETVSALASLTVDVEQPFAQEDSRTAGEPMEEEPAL
Reported IC50 values for the following compounds.

// below: answered compounds
COMPOUND	IC50
O=C(NO)c1cc(F)c2c(c1)CCN1CCC[C@@H]21 (single isomer, unassigned) [compound 79]	0.1 to 1 µM
O=C(NO)c1cc(F)c2c(c1)C[C@H]1CCCCN1C2 (single isomer, unassigned) [compound 94]	1 to 10 µM
C[C@@H]1C[C@H]2c3c(F)cc(C(=O)NO)cc3CCN2C1 (single isomer, unassigned) [compound 152]	0.1 to 1 µM
O=C(NO)c1ccc(CN2C[C@@H]3CC[C@H]2CO3)c(F)c1 (single isomer, unassigned) [compound 172]	10 to 100 µM
O=C(NO)c1ccc2c(c1)CN1CCCCN1C2 [compound 106]	10 to 100 µM
O=C(NO)c1cc(F)c2c(c1)CCN(C1CC3(CCCCC3)C1)C2 [compound 16]	> 100 µM

# context switch: different compound, same IC50
So what IC50 did O=C(NO)c1ccc(CN2CC3CCC(C2)O3)c(F)c1 [compound 53] get with Human HDAC9 a.a. 604-1066 (Homo sapiens)?
0.1 to 1 µM

---

Reported Selectivity (6 v 8) (fold) values for the following molecules.
- TEST SYSTEM: Full length Human HDAC6 (Homo sapiens)
- TEST SETTINGS: ratio of HDAC8 IC50/HDAC6 IC50; Table 1, number
Dear colleague, please return just the value in fold, with no unit written.

MOLECULE	Selectivity (6 v 8) (fold)
CC[C@H](c1ccccc1)N1CCc2cc(C(=O)NO)cc(F)c2C1 (single isomer, unassigned)	262.4
O=C(NO)c1cc(F)c2c(c1)C[C@H]1CCC3(CCCCC3)CN1C2 (single isomer, unassigned)	45
Cc1ccn2c1-c1c(F)cc(C(=O)NO)cc1CC2	6.1

# context switch: different molecule, same Selectivity (6 v 8) (fold)
For `O=C(NO)c1cc(F)c(CN2CCC3(CCCCC3)C2)cc1F` , what is its reported Selectivity (6 v 8) (fold)?
20

---

- TEST SYSTEM: Full length Human HDAC6 (Homo sapiens)
- TEST SETTINGS: read-out: In vitro enzymatic IC50, HDAC Paralog 6; Table 2
REPORTED ENDPOINT: IC50

// below: answered compounds
COMPOUND	REPORTED ENDPOINT	RESULT
O=C(NO)c1ccc(CN2CCC3(C2)C2CC4CC(C2)CC3C4)c(F)c1 (stereo not drawn) [compound 78]	IC50	1000 to 10000 nM
O=C(NO)c1ccc(CN2CCC3(CCCCC3)CC2)c(F)c1 [compound 74]	IC50	100 to 1000 nM
O=C(NO)c1cc(F)c2c(c1)CN(CC13CC4CC(CC(C4)C1)C3)C2 [compound 33]	IC50	1 to 100 nM

So what IC50 did O=C(NO)c1cc(F)c2c(c1)CC1CCCN1C2 (single isomer, unassigned) [compound 120] get with Full length Human HDAC6 (Homo sapiens)?
1 to 100 nM

So what IC50 did O=C(NO)c1ccc(CN2C3CCC2CC(=NO)C3)c(F)c1 [compound 54] get with Full length Human HDAC6 (Homo sapiens)?
1 to 100 nM

So what IC50 did CN1CC2(CCCCC2)CC[C@@H]1Cc1cc(F)cc(C(=O)NO)c1 (single isomer, unassigned) [compound 170] get with Full length Human HDAC6 (Homo sapiens)?
1 to 100 nM

So what IC50 did O=C(NO)c1cc(F)c2c(c1)CCN(CC1COC1)C2 [compound 27] get with Full length Human HDAC6 (Homo sapiens)?
1 to 100 nM

So what IC50 did O=C(NO)c1cc(F)c2c(c1)CCN(C1COC1)C2 [compound 24] get with Full length Human HDAC6 (Homo sapiens)?
1 to 100 nM

So what IC50 did O=C(NO)c1cc(F)c(CN2CCC3(CCCCC3)C2)cc1F [compound 67] get with Full length Human HDAC6 (Homo sapiens)?
1 to 100 nM

---

- TEST SYSTEM: Full length Human HDAC6 (Homo sapiens, UniProt Q9UBN7)
- Sequence (Q9UBN7 whole entry): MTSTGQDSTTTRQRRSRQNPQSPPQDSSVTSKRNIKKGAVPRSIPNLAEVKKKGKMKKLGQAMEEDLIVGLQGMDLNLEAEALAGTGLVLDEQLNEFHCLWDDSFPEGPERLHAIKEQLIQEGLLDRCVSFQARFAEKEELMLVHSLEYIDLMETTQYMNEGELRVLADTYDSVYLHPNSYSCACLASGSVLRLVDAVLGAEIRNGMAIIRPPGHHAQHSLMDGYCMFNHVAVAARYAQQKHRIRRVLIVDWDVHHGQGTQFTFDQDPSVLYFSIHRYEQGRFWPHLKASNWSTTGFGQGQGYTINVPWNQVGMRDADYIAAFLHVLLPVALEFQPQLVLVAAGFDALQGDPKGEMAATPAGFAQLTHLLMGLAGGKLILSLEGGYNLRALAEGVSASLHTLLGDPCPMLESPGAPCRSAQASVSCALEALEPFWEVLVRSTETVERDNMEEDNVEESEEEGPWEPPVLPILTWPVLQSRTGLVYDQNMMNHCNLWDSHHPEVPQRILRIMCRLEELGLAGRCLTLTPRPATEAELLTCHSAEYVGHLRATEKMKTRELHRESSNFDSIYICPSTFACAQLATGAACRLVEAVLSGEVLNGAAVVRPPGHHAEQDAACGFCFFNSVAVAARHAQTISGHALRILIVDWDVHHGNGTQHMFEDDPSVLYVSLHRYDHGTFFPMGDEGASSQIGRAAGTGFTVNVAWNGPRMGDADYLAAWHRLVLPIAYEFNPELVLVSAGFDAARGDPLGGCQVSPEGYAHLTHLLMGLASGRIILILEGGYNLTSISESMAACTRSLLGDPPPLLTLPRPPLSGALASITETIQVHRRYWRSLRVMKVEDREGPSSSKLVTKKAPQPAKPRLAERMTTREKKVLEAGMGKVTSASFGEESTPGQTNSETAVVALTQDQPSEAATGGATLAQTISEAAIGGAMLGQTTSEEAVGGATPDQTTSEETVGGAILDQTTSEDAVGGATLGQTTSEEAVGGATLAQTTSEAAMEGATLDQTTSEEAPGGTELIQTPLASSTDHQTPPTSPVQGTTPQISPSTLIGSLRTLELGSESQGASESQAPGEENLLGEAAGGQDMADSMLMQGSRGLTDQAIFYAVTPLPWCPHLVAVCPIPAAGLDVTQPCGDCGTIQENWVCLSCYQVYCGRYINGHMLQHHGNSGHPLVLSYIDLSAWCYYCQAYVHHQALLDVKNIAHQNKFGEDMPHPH
- TEST SETTINGS: ratio of HDAC8 IC50/HDAC6 IC50; Table 1, number
REPORTED ENDPOINT: Selectivity (6 v 8) (fold)
Dear colleague, please return just the value in fold, with no unit written.

// below: answered compounds
COMPOUND	MEASUREMENT UNITS	Selectivity (6 v 8) (fold)
CC1(CN2CCc3cc(C(=O)NO)cc(F)c3C2)CC1 [compound 1]	fold	145.7
CC[C@H]1CCCN1Cc1ccc(C(=O)NO)cc1F (single isomer, unassigned) [compound 49]	fold	15.4
O=C(NO)c1cc(F)c2c(c1)CN(CC13C4C5C6C4C1C6C53)CC2 (stereo not drawn) [compound 116]	fold	11

For O=C(NO)c1cc(F)c2c(c1)CN(Cc1ccccc1)CC2 [compound 114] , what is its reported Selectivity (6 v 8) (fold)?
10.3

For O=C(NO)c1ccc(CN2C3CCCC2CCC3)c(F)c1 [compound 60] , what is its reported Selectivity (6 v 8) (fold)?
5.8

For O=C(NO)c1ccc(CN2C3CCC2CC(=NO)C3)c(F)c1 [compound 54] , what is its reported Selectivity (6 v 8) (fold)?
38.9

For O=C(NO)c1cc(F)c2c(c1)C[C@@H]1CCC3(CCCCC3)CN1C2 (single isomer, unassigned) [compound 137] , what is its reported Selectivity (6 v 8) (fold)?
126.4

For CC[C@@H](c1ccccc1)N1CCc2cc(C(=O)NO)cc(F)c2C1 (single isomer, unassigned) [compound 31] , what is its reported Selectivity (6 v 8) (fold)?
468.8

For O=C(NO)c1ccc(CN2CC3(CCOCC3)C2)c(F)c1 [compound 71] , what is its reported Selectivity (6 v 8) (fold)?
33.4

For CC[C@@H]1CCCN1Cc1ccc(C(=O)NO)cc1F (single isomer, unassigned) [compound 48] , what is its reported Selectivity (6 v 8) (fold)?
15.6

For O=C(NO)c1ccc(CN2CC3(CCCCC3)C2)c(F)c1 [compound 70] , what is its reported Selectivity (6 v 8) (fold)?
16

For O=C(NO)c1ccc(CN2CC3(CCOC3)C2)c(F)c1 [compound 68] , what is its reported Selectivity (6 v 8) (fold)?
27.9

For O=C(NO)c1ccc2c(c1)CCN1CCC[C@@H]21 (single isomer, unassigned) [compound 149] , what is its reported Selectivity (6 v 8) (fold)?
6.5

For CN1Cc2ccc(C(=O)NO)cc2CN1Cc1ccccc1 [compound 117] , what is its reported Selectivity (6 v 8) (fold)?
7.9

For O=C(NO)c1ccc(CN2C3CCCC2CC3)c(F)c1 [compound 61] , what is its reported Selectivity (6 v 8) (fold)?
9.6

For O=C(NO)c1ccc(CN2CCOCC2)c(F)c1 [compound 51] , what is its reported Selectivity (6 v 8) (fold)?
27.6

For CN1CC2(CCCCC2)CC[C@@H]1Cc1cc(F)cc(C(=O)NO)c1 (single isomer, unassigned) [compound 170] , what is its reported Selectivity (6 v 8) (fold)?
68

---

- RUN DESCRIPTION: in vitro
- TEST SETTINGS: human
REPORTED ENDPOINT: viability at 48 h, 30 µM

For `O=C(CCCCCCC(=O)Nc1ccccc1)NO` , what is its reported viability at 48 h, 30 µM?
40.3%
